- ASSAY SYSTEM: AR protein (Homo sapiens)
- Construct: endogenous in cells; host or cells: VCaP
- Sequence (P10275 whole entry): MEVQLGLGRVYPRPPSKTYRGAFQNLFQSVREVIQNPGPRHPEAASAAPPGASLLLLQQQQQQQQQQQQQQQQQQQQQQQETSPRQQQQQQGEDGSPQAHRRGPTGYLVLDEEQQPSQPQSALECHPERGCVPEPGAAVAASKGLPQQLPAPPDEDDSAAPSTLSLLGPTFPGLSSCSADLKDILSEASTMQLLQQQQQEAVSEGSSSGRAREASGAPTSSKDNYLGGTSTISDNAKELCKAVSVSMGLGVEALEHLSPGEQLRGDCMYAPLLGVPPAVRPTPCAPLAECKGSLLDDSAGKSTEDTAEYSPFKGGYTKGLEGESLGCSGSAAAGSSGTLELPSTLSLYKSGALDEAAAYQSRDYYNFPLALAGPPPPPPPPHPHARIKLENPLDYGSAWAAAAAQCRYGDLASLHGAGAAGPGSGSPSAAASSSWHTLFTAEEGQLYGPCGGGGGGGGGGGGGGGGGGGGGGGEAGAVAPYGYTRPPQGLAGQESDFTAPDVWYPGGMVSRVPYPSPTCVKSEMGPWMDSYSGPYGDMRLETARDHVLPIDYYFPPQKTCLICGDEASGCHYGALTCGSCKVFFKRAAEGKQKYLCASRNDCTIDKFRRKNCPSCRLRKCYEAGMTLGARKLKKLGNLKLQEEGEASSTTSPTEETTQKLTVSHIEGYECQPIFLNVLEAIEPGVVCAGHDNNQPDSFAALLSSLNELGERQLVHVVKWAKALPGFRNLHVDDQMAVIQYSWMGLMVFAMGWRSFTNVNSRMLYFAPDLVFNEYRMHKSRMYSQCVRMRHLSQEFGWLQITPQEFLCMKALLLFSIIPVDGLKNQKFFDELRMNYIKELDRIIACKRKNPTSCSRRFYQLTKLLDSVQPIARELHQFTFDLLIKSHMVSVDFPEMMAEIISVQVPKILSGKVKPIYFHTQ
- PROTOCOL TEXT: AR protein degradation in VCaP cells, Western blotting
- Type: cell-based
- PARTICULARS: 100 nM, 24 hr treatment
percent AR protein degradation at 0.1 µM listing for selected molecules.

Query: Entry under review: CN(c1ccc(C#N)c(Cl)c1)[C@H]1CC[C@H](NC(=O)c2ccc(N3CCC(CN4Cc5cc6c(cc5C4)C(=O)N(C4CCC(=O)NC4=O)C6=O)CC3)cn2)CC1 (stereo partly drawn) . Reported percent AR protein degradation at 0.1 µM?
Response: > 90%

Query: Entry under review: CN(c1ccc(C#N)c(Cl)c1)[C@H]1CC[C@H](NC(=O)c2ccc(CN3CCC(C(=O)N4Cc5cc6c(cc5C4)C(=O)N(C4CCC(=O)NC4=O)C6)CC3)cc2)CC1 (stereo partly drawn) . Reported percent AR protein degradation at 0.1 µM?
Response: > 90%

Query: Entry under review: CC1(C)[C@H](Oc2ccc(C#N)c(Cl)c2)C(C)(C)[C@H]1N1Cc2cc(C(=O)N3CCC(CCN4Cc5cc6c(cc5C4)C(=O)N(C4CCC(=O)NC4=O)C6=O)CC3)ccc2C1=O (stereo partly drawn) . Reported percent AR protein degradation at 0.1 µM?
Response: > 90%

Query: Entry under review: CN(c1ccc(C#N)c(Cl)c1)[C@H]1CC[C@H](NC(=O)c2ccc([C@H]3CC[C@H](CN4Cc5cc6c(cc5C4)C(=O)N(C4CCC(=O)NC4=O)C6=O)CC3)cn2)CC1 (stereo partly drawn) . Reported percent AR protein degradation at 0.1 µM?
Response: > 90%

Query: Entry under review: C[C@H]1CCN(c2ccc(C(=O)N3CCC(N4Cc5cc6c(cc5C4)C(=O)N(C4CCC(=O)NC4=O)C6=O)CC3)cc2)CCN1c1ccc(C#N)c(Cl)c1 (stereo partly drawn) . Reported percent AR protein degradation at 0.1 µM?
Response: 50 to 90%

----------
percent AR protein degradation at 0.1 µM listing for selected molecules.
- ASSAY SYSTEM: AR protein (Homo sapiens)
- Construct: endogenous in cells; host or cells: VCaP
- PROTOCOL TEXT: AR protein degradation in VCaP cells, Western blotting
- Format: cell-based
- PARTICULARS: 100 nM, 24 hr treatment

Guide cases for percent AR protein degradation at 0.1 µM, answers given:
- MOLECULE: "N#Cc1ccc(N[C@H]2CC[C@H](NC(=O)c3ccc(N4CCC(CN5Cc6cc7c(cc6C5)C(=O)N(C5CCC(=O)NC5=O)C7=O)CC4)cc3)CC2)cc1Cl (stereo partly shown) [compound 18]"
  ASSAY SYSTEM: "AR protein (Homo sapiens)"
  PROPERTY: "percent AR protein degradation at 0.1 µM"
  REPORTED: "> 90%"
- MOLECULE: "N#Cc1ccc(O[C@H]2CC[C@H](N3Cc4cc(C(=O)N5CCC(N6Cc7cc8c(cc7C6)C(=O)N(C6CCC(=O)NC6=O)C8=O)CC5)ccc4C3=O)CC2)cc1Cl (stereo partly shown) [compound 173]"
  ASSAY SYSTEM: "AR protein (Homo sapiens)"
  PROPERTY: "percent AR protein degradation at 0.1 µM"
  REPORTED: "> 90%"
- MOLECULE: "CC1(C)[C@H](Oc2ccc(C#N)c(Cl)c2)C(C)(C)[C@H]1N1Cc2cc(C(=O)N3CCC(N4Cc5cc6c(cc5C4)C(=O)N(C4CCC(=O)NC4=O)C6=O)CC3)ccc2C1=O (stereo partly shown) [compound 5]"
  ASSAY SYSTEM: "AR protein (Homo sapiens)"
  PROPERTY: "percent AR protein degradation at 0.1 µM"
  REPORTED: "10 to 50%"
- MOLECULE: "N#Cc1ccc(O[C@H]2CC[C@H](NC(=O)c3ccc4c(c3)CCN(CC(=O)N3Cc5cc6c(cc5C3)C(=O)N(C3CCC(=O)NC3=O)C6=O)C4)CC2)cc1Cl (stereo partly shown) [compound 27]"
  ASSAY SYSTEM: "AR protein (Homo sapiens)"
  PROPERTY: "percent AR protein degradation at 0.1 µM"
  REPORTED: "> 90%"
- MOLECULE: "N#Cc1ccc(O[C@H]2CC[C@H](NC(=O)c3ccc(N4CC(CN5Cc6cc7c(cc6C5)C(=O)N(C5CCC(=O)NC5=O)C7=O)C4)cc3)CC2)cc1Cl (stereo partly shown) [compound 21]"
  ASSAY SYSTEM: "AR protein (Homo sapiens)"
  PROPERTY: "percent AR protein degradation at 0.1 µM"
  REPORTED: "> 90%"

Query: Given the entry N#Cc1ccc(O[C@H]2CC[C@H](NC(=O)c3ccc4c(c3)CCN(C(=O)CN3Cc5cc6c(cc5C3)C(=O)N(C3CCC(=O)NC3=O)C6=O)C4)CC2)cc1Cl (stereo partly shown) [compound 24] , what percent AR protein degradation at 0.1 µM was observed with AR protein (Homo sapiens)?
Response: > 90%

Query: Given the entry C[C@H]1C[C@H](NC(=O)c2ccc(N3CCC(CN4Cc5cc6c(cc5C4)C(=O)N(C4CCC(=O)NC4=O)C6=O)CC3)cc2)CC[C@H]1Oc1ccc(C#N)c(Cl)c1 (stereo partly shown) [compound 14] , what percent AR protein degradation at 0.1 µM was observed with AR protein (Homo sapiens)?
Response: > 90%
